# test_target: Progesterone Receptor (PR) (Homo sapiens)
# Construct: endogenous in cells; host or cells: T47D human breast mammary carcinoma cells
# test_details: In vitro functional assay for progesterone receptor (PR) antagonists: inhibition of progesterone-induced alkaline phosphatase expression in T47D cells
# Type: cell-based
# conditions_used: antagonist format, 5 nM progesterone, Ki calculated from IC50 with the Cheng-Prusoff equation
pKi: −log10 of the molar value.
experimental_endpoint: pKi

compound	test_target	pKi
CC(C)n1nc(-c2ccc(C#N)cc2)c(C2CC2)c1C(=O)NCCN	Progesterone Receptor (PR) (Homo sapiens)	6.77

[a] CC(C)n1nc(-c2ccc(C#N)cc2)c(C2CC2)c1C(=O)N[C@H]1C[C@@H](O)C1
[b] CC(C)n1nc(-c2ccc(C#N)cc2)c(C2CC2)c1C(=O)NC1CCOC1 (stereo not shown)
[c] CC(C)n1nc(-c2ccc(C#N)cc2)c(C2CC(F)(F)C2)c1C(=O)NC1CC1
Hey, can you sort those compounds up there by pKi, smallest first? List each label, following the requested order.
c, a, b
(c: 6.68, a: 7.46, b: 8.24)

----------
# test_target: Progesterone Receptor (PR) (Homo sapiens, UniProt P06401)
# Construct: endogenous in cells
# test_details: In vitro functional assay for progesterone receptor (PR) antagonists: inhibition of progesterone-induced alkaline phosphatase expression in T47D cells
# conditions_used: antagonist format, 5 nM progesterone, Ki calculated from IC50 with the Cheng-Prusoff equation
pKi: −log10 of the molar value.
experimental_endpoint: pKi

Previously resolved entries follow.
molecule	pKi
Cc1cc(-c2nn(C(C)C)c(C(=O)NCC(C)(C)O)c2C)ccc1C#N [Example 68]	8.20
Cc1c(-c2ccc(C#N)cc2)nn(C2CCOC2)c1C(=O)NCC1CC1 (stereo not shown) [Example 127]	7.95

[A] CCc1c(-c2ccc(C#N)cc2)nn(C(C)CC)c1C(=O)NCC1CC1 (racemic) [Example 101]
[B] CC(Cn1cccn1)NC(=O)c1c(C2CC2)c(-c2ccc(C#N)cc2)nn1C(C)C (racemic) [Example 44]
Quick check, higher pKi between A and B ? Use the label to indicate which entry you chose.
A

----------
# test_target: Progesterone Receptor (PR) (Homo sapiens, UniProt P06401)
# Construct: endogenous in cells; host or cells: T47D human breast mammary carcinoma cells
# test_details: In vitro functional assay for progesterone receptor (PR) antagonists: inhibition of progesterone-induced alkaline phosphatase expression in T47D cells
# Format: cell-based
# conditions_used: antagonist format, 5 nM progesterone, Ki calculated from IC50 with the Cheng-Prusoff equation
experimental_endpoint: Ki (nM)

Previously resolved entries follow.
compound	experimental_endpoint	unit	measured_number
CC(C)n1nc(-c2ccc(C#N)cc2)c(C2CC2)c1C(=O)NCc1ccncn1	Ki	nM	10.2
CC(C)n1nc(-c2ccc(C#N)cc2)c(C2CC2)c1C(=O)NCC1CCCO1 (racemic)	Ki	nM	12
Cc1c(-c2ccc(C#N)cc2)nn(C2CCOC2)c1C(=O)NC[C@H](C)O (mixture of isomers) [Example 78]	Ki	nM	71.6

[1] CCc1c(-c2ccc(C#N)cc2)nn(C(C)CC)c1C(=O)NCC(C)(C)O (single isomer, unassigned) [Example 106 Ent 2]
[2] CC(C)NC(=O)c1c(C2CC2)c(-c2ccc(C#N)cc2)nn1C(C)C
Quick check, higher Ki between 1 and 2 ? Use the label to indicate which entry you chose.
1

----------
# test_target: Progesterone Receptor (PR) (Homo sapiens, UniProt P06401)
# Construct: endogenous in cells
# test_details: In vitro functional assay for progesterone receptor (PR) antagonists: inhibition of progesterone-induced alkaline phosphatase expression in T47D cells
# conditions_used: antagonist format, 5 nM progesterone, Ki calculated from IC50 with the Cheng-Prusoff equation
pKi: −log10 of the molar value.
experimental_endpoint: pKi

compound	measured_number
Cc1cc(-c2nn(C(C)C)c(C(=O)NC(C)C)c2C)ccc1C#N	8.45

[1] Cc1c(-c2ccc(C#N)cc2)nn(C2CCC2)c1C(=O)NCC(C)(C)O
[2] Cc1c(-c2ccc(C#N)cc2)nn(C2CCOC2)c1C(=O)NC(C)C (single isomer, unassigned) [Example 77 Ent 1]
Quick check, higher pKi between 1 and 2 ? Use the label to indicate which entry you chose.
1

----------
# test_target: Progesterone Receptor (PR) (Homo sapiens)
# Construct: endogenous in cells
# Sequence (P06401 1-933): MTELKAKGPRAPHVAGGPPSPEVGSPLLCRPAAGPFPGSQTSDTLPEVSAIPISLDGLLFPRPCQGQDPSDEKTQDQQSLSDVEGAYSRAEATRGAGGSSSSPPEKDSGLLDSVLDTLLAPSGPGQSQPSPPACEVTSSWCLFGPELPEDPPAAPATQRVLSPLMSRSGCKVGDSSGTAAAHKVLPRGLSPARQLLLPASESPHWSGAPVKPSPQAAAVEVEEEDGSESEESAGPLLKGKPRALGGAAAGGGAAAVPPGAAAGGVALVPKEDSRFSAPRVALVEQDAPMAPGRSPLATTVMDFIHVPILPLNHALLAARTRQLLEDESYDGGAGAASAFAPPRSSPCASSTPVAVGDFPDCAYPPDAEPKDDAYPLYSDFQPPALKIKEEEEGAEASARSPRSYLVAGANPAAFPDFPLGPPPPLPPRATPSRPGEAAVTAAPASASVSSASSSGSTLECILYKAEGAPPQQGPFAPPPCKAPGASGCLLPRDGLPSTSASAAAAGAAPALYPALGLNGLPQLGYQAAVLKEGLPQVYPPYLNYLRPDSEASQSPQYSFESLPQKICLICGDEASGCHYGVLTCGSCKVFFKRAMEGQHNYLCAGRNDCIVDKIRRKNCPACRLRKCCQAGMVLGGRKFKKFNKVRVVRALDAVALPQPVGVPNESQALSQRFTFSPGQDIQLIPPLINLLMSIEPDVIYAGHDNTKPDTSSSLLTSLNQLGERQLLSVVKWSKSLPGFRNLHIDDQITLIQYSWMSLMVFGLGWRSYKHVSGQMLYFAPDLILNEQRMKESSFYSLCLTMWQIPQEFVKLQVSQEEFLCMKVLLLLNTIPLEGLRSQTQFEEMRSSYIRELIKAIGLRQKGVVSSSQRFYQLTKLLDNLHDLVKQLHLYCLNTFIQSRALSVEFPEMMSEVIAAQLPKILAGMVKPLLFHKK
# test_details: In vitro functional assay for progesterone receptor (PR) antagonists: inhibition of progesterone-induced alkaline phosphatase expression in T47D cells
# conditions_used: antagonist format, 5 nM progesterone, Ki calculated from IC50 with the Cheng-Prusoff equation
experimental_endpoint: Ki (µM)

compound	unit	Ki
CC(C)n1nc(-c2ccc(C#N)cc2)c(C2CC2)c1C(=O)NC(C)(C)CO	µM	0.0826
CCc1c(-c2ccc(C#N)cc2)nn(C(C)CC)c1C(=O)NCC(=O)NC (single isomer, unassigned) [Example 109 Ent 1]	µM	0.099
CCc1c(-c2ccc(C#N)cc2)nn(C(C)C)c1C(=O)NC[C@@H](C)O	µM	0.085

----------
# test_target: Progesterone Receptor (PR) (Homo sapiens, UniProt P06401)
# Construct: endogenous in cells
# test_details: In vitro functional assay for progesterone receptor (PR) antagonists: inhibition of progesterone-induced alkaline phosphatase expression in T47D cells
# conditions_used: antagonist format, 5 nM progesterone, Ki calculated from IC50 with the Cheng-Prusoff equation
experimental_endpoint: Ki (nM)

Previously resolved entries follow.
compound	Ki / nM
CC(=O)CNC(=O)c1c(C2CC2)c(-c2ccc(C#N)cc2)nn1C(C)C	8.29
CC(C)n1nc(-c2ccc(C#N)cc2)c(C2CC2)c1C(=O)N[C@H]1CCOC1=O	19.4

[a] CC(C)n1nc(-c2ccc(C#N)cc2)c(Cl)c1C(=O)NC1CC1
[b] CC(C)n1nc(-c2ccc(C#N)cc2)c(C2CC2)c1C(=O)NC1CCS(=O)(=O)C1 (racemic) [Example 57]
Select one. Lower Ki: a or b Use the label to indicate which entry you chose.
b
